target: Delta-type opioid receptor (Rattus norvegicus, UniProt P33533); assay: Inhibition of [3H][Ile5,6]-deltorphin I binding to rat Opioid receptor delta
Sequence (P33533 whole entry): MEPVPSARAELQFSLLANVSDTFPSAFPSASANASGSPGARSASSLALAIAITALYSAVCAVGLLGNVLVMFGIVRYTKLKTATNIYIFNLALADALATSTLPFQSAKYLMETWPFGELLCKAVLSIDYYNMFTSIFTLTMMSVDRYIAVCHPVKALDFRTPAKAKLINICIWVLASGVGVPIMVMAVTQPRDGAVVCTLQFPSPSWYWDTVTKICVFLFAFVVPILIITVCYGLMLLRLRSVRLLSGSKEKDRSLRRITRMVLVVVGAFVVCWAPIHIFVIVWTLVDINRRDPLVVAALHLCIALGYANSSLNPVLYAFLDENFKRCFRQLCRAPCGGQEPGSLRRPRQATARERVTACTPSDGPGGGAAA
Below: a set of entries, each annotated with reported Ki.
Recorded Endpoint: Ki

- Smiles Structure: "Cc1cc(O)cc(C)c1C[C@@H](N)CN1Cc2ccccc2C[C@@H](NC(=O)Cc2ccccc2)C1=O"
  Result: "2900 nM"
- Smiles Structure: "Cc1cc(O)cc(C)c1C[C@H](N)CN1Cc2ccccc2C[C@@H](NC(=O)Cc2ccccc2)C1=O"
  Result: "1100 nM"
- Smiles Structure: "Cc1cc(O)cc(C)c1C[C@@H](N)CN1Cc2ccccc2C[C@H](NC(=O)Cc2ccccc2)C1=O"
  Result: "684 nM"
- Smiles Structure: "Cc1cc(O)cc(C)c1C[C@H](N)CN1Cc2ccccc2C[C@H](NC(=O)Cc2ccccc2)C1=O"
  Result: "25.8 nM"

----------
target: Mu-type opioid receptor (Rattus norvegicus)
Sequence (P33535 whole entry): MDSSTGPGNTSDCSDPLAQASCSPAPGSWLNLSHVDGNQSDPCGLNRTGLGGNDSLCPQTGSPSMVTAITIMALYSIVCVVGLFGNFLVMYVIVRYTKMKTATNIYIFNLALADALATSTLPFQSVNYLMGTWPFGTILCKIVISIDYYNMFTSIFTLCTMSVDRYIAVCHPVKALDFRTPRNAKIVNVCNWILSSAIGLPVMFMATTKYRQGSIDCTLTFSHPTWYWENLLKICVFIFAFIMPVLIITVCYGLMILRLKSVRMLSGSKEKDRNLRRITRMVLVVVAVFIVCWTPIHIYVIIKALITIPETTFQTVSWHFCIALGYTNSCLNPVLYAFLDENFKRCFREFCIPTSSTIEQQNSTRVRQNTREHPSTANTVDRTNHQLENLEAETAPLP

- Smiles Structure: "Cc1cc(O)cc(C)c1C[C@H](N)CN1Cc2ccccc2C[C@@H](NC(=O)Cc2ccccc2)C1=O"
  Unit Descriptor: "µM"
  Ki: 0.0235
- Smiles Structure: "Cc1cc(O)cc(C)c1C[C@@H](N)CN1Cc2ccccc2C[C@H](NC(=O)Cc2ccccc2)C1=O"
  Unit Descriptor: "µM"
  Ki: 0.0151
- Smiles Structure: "Cc1cc(O)cc(C)c1C[C@H](N)CN1Cc2ccccc2C[C@H](NC(=O)Cc2ccccc2)C1=O"
  Unit Descriptor: "µM"
  Ki: 0.0033
- Smiles Structure: "Cc1cc(O)cc(C)c1C[C@@H](N)CN1Cc2ccccc2C[C@@H](NC(=O)Cc2ccccc2)C1=O"
  Unit Descriptor: "µM"
  Ki: 0.0417
